Tested on: NCI-H226 lung
Assay: NCI tumour cell line growth inhibition, 48 h
The reader will find reported TGI values listed item by item below.
Recorded Endpoint: TGI (µM)

- Molecule: "COc1c(O)cc2c(c1O)C1O[C@H](CO)C(O)[C@H](O)[C@H]1OC2=O (stereo not given in full)"
  Unit Text: "µM"
  Relation Qualifier: ">"
  Value Measured: 100
- Molecule: "COc1ccc(/C=C/[N+](=O)[O-])cc1"
  Unit Text: "µM"
  Relation Qualifier: "="
  Value Measured: 17.4
- Molecule: "Cc1ccccc1NC(=O)/C(C#N)=N\\Nc1nc[nH]c1C(N)=O"
  Unit Text: "µM"
  Relation Qualifier: ">"
  Value Measured: 100
- Molecule: "COc1cc(/C=N/NC2=NCCCN2)ccc1O"
  Unit Text: "µM"
  Relation Qualifier: ">"
  Value Measured: 100
- Molecule: "CCn1c(SCC(=O)NNC(=S)Nc2ccc(F)cc2)nc2ccccc2c1=O"
  Unit Text: "µM"
  Relation Qualifier: ">"
  Value Measured: 100
- Molecule: "NC(=O)NC(=O)c1ccc(NC(=O)CBr)cc1"
  Unit Text: "µM"
  Relation Qualifier: "="
  Value Measured: 10.2
- Molecule: "O=C1OC2(c3ccc(O)cc3Oc3cc(O)ccc32)c2c1c(-c1ccccc1)c(-c1ccccc1)c(-c1ccccc1)c2-c1ccccc1"
  Unit Text: "µM"
  Relation Qualifier: "="
  Value Measured: 87.3
- Molecule: "COc1ccccc1N1C(=O)/C(=C\\c2cc(OC)c(OC)c(OC)c2)S(=O)(=O)C1c1ccccc1 (stereo not given)"
  Unit Text: "µM"
  Relation Qualifier: ">"
  Value Measured: 100
- Molecule: "CCNc1nc(N2CC(=O)Nc3cc(OC)ccc32)c2ccccc2n1"
  Unit Text: "µM"
  Relation Qualifier: ">"
  Value Measured: 100
- Molecule: "CO[C@H](C(=O)N[C@@H](CCCCNC(=O)OCc1ccccc1)C(=O)OC(C)(C)C)[C@@H]1Cc2cc3cc(OC4CC(OC5CC(O)C(O)C(C)O5)C(O)C(C)O4)c(C)c(O)c3c(O)c2C(=O)[C@H]1OC1CC(OC2CC(OC3CC(C)(O)C(O)C(C)O3)C(O)C(C)O2)C(O)C(C)O1 (stereo not given in full)"
  Unit Text: "µM"
  Relation Qualifier: "="
  Value Measured: 2.14
- Molecule: "COc1cccc2c1c1nc3cc(C)c(C)cc3nc1n2CCN(C)C"
  Unit Text: "µM"
  Relation Qualifier: "="
  Value Measured: 6.45
- Molecule: "Cc1ccc2sc3c(NCCCNCCO)nc4ccccc4c3c(=O)c2c1"
  Unit Text: "µM"
  Relation Qualifier: "="
  Value Measured: 3.68
- Molecule: "CCN(CC)c1ccc2c(c1)N=C1N=CC=CN1C2(c1ccc(N(C)C)cc1)c1ccc(N(C)C)cc1"
  Unit Text: "µM"
  Relation Qualifier: "="
  Value Measured: 27.2
- Molecule: "Nc1ccc(C(=O)NN2C(=O)C(Cl)C2c2ccccc2O)cc1 (stereo not given)"
  Unit Text: "µM"
  Relation Qualifier: ">"
  Value Measured: 100
- Molecule: "COC(=O)[C@]12CSC[C@H]1C[C@H](c1ccc(N(C)C)cc1)N2"
  Unit Text: "µM"
  Relation Qualifier: ">"
  Value Measured: 100
- Molecule: "COC(=O)C1=CC2OC1(C)C1(CC1)C2=O (stereo not given)"
  Unit Text: "µM"
  Relation Qualifier: "="
  Value Measured: 43.5
- Molecule: "CCO/C(O)=C(/C(=N)N1CCCC1)C(=O)Nc1ccc(Cl)cc1"
  Unit Text: "µM"
  Relation Qualifier: ">"
  Value Measured: 100
- Molecule: "Cn1cc(C2=C(c3c4n(c5ccccc35)CCC(CN)CC4)C(=O)NC2=O)c2ccccc21 (stereo not given)"
  Unit Text: "µM"
  Relation Qualifier: "="
  Value Measured: 16.2
- Molecule: "Cc1n[nH]c(=O)n1/N=C/c1cccnc1"
  Unit Text: "µM"
  Relation Qualifier: ">"
  Value Measured: 100
- Molecule: "COc1ccc2c(c1)/C(=C\\c1cccc(/C=C3/C(=O)Nc4ccc(OC)cc43)n1)C(=O)N2"
  Unit Text: "µM"
  Relation Qualifier: "="
  Value Measured: 4.16
